# maps each entry to its pKd
- TARGET OF ASSAY: SCRIB_1, Q14160
- Sequence (Q14160 718-814): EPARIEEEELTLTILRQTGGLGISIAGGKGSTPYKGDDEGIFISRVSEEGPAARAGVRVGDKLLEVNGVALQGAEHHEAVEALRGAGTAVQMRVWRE
- TEST DETAILS: holdup assay
- Design: key: below the threshold = too weak to quantify, mostly under pKd 3.1 to 4
- CONDITION INFO: plain residues with an end cap or a label only (N-terminal biotin on a linker: ado-ado)
VALUE KIND: pKd

1. KEKASTETEC [TRPM1, Q7Z4N2]	4.31
2. VISSDDLTEL [CAPN6, Q9Y6Q1]	3.6
3. IQISELETNV [SLC1A7, O00341]	4.11

These entries and their values trace back to paper PMC9482650.
